Entries and their measured PBM binding z-score follow.
Test system: VDR:RXRa (NR concentration 270 nM, RXRa partner concentration 90 nM)
Test: PBM binding z-score (relative to random genomic background probes); higher = stronger binding; sequences stand for … in GC…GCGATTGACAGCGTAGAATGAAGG
Reply briefly: the number, and no unit.

Previously resolved entries follow.
# Sequence record, Measure, Numeric value
rows = [
    ("TCTGCTAGGTCAACGTTGGTCAGCTAATCTGCTA", "PBM binding z-score", 1.46),
    ("ATATGTAGGTTAGCTGGGGTCCTTCAGACTAGGC", "PBM binding z-score", 0.978),
    ("CCTAGTGGGCCAAGGTCATTGATCAGTCAAAGCA", "PBM binding z-score", 3.33),
]

Now look at this entry.
// query Identify the reported PBM binding z-score for the following entry. ATCGAAAGGTCGACGCGGTGAGTATACACCGTTT
// result 3.04

====

System: THRa:RXRa (NR concentration 90 nM, RXRa partner concentration 90 nM)
Experiment: PBM binding z-score (relative to random genomic background probes); higher = stronger binding; sequences stand for … in GC…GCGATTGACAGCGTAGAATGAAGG
Label Yes for high-side PBM binding z-score (at or above 3) and No for low-side PBM binding z-score (below it).

# Sequence record, Discrete label
records = [
    ("TAGCCGAGGTCATTCAGGGGCCAGTATAGAAAGC", "Yes"),
    ("ATATGTAGGTTAAAGGTCATTCAGGTTGGTTCGC", "Yes"),
    ("ACTTACGGCTCAACGAGGTTATAGCACGCGTATA", "No"),
]

// query Would you say TAGCCTAGGGCATTCAGGGGCCAGTATAGAAAGC shows PBM binding z-score at minimum 3?
// result No

// query Can ATATGTAGGATAGCTGGGGTCATTCAGACTAGGC be said to have PBM binding z-score at or above 3?
// result Yes

// query hey, is PBM binding z-score for this one >= 3? AGAATGAGGTCATTAAGATCAGGGAATTGCGGTC
// result Yes

// query Please indicate if the recorded PBM binding z-score for AGTCAAAGTTCATCTAGGTCACGTAAGATATGCT meets or exceeds 3.
// result Yes

// query Determine whether this sequence has PBM binding z-score no lower than 3: CGTCAAAGGTCAAGGTCAGTGAAAGAGACTCGAA
// result Yes

// query Reported PBM binding z-score at or above 3? TCTTGTAGATCAATAGAAGTTAAGAAAGTGCGCT
// result No

// query Is it the case that CGAACGAGGTCATTGACAGGACAGTGAATAGTAA has PBM binding z-score reaching or exceeding 3?
// result Yes

// query Given CCTTACGGGTCACTCCAGGTTATATCATCGGAGT , state whether its PBM binding z-score is at least 3.
// result Yes

====

System: RARa:RXR (NR concentration 270 nM, RXRa partner concentration 90 nM)
Assay: PBM binding z-score (relative to random genomic background probes); higher = stronger binding; sequences stand for … in GC…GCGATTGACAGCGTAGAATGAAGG
Overview of recorded PBM binding z-score for various sequences
Output: the number by itself.

# Sequence record, Tested on, PBM binding z-score
records = [
    ("ACGCGGAGGACAAAGGTCAGAGCTACGCCAGTGA", "RARa:RXR (NR concentration 270 nM, RXRa partner concentration 90 nM)", 5.05),
    ("TCTCGGAGGACACCAAAGGTCAGAGCTCGACATC", "RARa:RXR (NR concentration 270 nM, RXRa partner concentration 90 nM)", 4.86),
]

Attention now turns to another entry.
// query Give the reported PBM binding z-score for this sequence. CGAACTAGGTCATTGACAGGACAGTGGATAGTAA
// result 2.02
